Experiment: Intestinal stability of anthocyanins in extracts, standardized in vitro digestion (simulated intestinal fluid, pancreatin, bile, pH 7)
Assay type: in vitro ADME
Settings: co-digestion of black carrot and strawberry extracts, mean ± SD n = 3
# Lookup of reported Post-Intestinal concentration keyed by entry
reported-endpoint: Post-Intestinal concentration

{"columns": ["molecule", "reported-endpoint", "value-reported"],
 "data": [
  ["O=C(O)CC(=O)OC[C@H]1O[C@@H](Oc2cc3c(O)cc(O)cc3[o+]c2-c2ccc(O)cc2)[C@H](O)[C@@H](O)[C@@H]1O [Pelargonidin-3-malonyl-glucoside]", "Post-Intestinal concentration", "1.91 ± 0.02 mg/100 mL of extract"],
  ["O=C(/C=C/c1ccc(O)cc1)OC[C@H]1O[C@@H](OC[C@H]2O[C@@H](Oc3cc4c(O)cc(O)cc4[o+]c3-c3ccc(O)c(O)c3)[C@H](O[C@@H]3OC[C@@H](O)[C@H](O)[C@H]3O)[C@@H](O)[C@H]2O)[C@H](O)[C@@H](O)[C@@H]1O", "Post-Intestinal concentration", "0.75 ± 0.04 mg/100 mL of extract"],
  ["OC[C@H]1O[C@@H](OC[C@H]2O[C@@H](Oc3cc4c(O)cc(O)cc4[o+]c3-c3ccc(O)c(O)c3)[C@H](O[C@@H]3OC[C@@H](O)[C@H](O)[C@H]3O)[C@@H](O)[C@H]2O)[C@H](O)[C@@H](O)[C@@H]1O [Cyanidin-3-xylosyl-glucosyl-galactoside]", "Post-Intestinal concentration", "0.42 ± 0.00 mg/100 mL of extract"],
  ["COc1cc(/C=C/C(=O)OC[C@H]2O[C@@H](OC[C@H]3O[C@@H](Oc4cc5c(O)cc(O)cc5[o+]c4-c4ccc(O)c(O)c4)[C@H](O[C@@H]4OC[C@@H](O)[C@H](O)[C@H]4O)[C@@H](O)[C@H]3O)[C@H](O)[C@@H](O)[C@@H]2O)ccc1O", "Post-Intestinal concentration", "5.81 ± 0.03 mg/100 mL of extract"],
  ["OC[C@H]1O[C@@H](Oc2cc3c(O)cc(O)cc3[o+]c2-c2ccc(O)c(O)c2)[C@H](O[C@@H]2OC[C@@H](O)[C@H](O)[C@H]2O)[C@@H](O)[C@H]1O [Cyanidin-3-xylosyl-galactoside]", "Post-Intestinal concentration", "1.09 ± 0.01 mg/100 mL of extract"],
  ["OC[C@H]1O[C@@H](Oc2cc3c(O)cc(O)cc3[o+]c2-c2ccc(O)cc2)[C@H](O)[C@@H](O)[C@@H]1O [Pelargonidin-3-glucoside]", "Post-Intestinal concentration", "5.78 ± 0.13 mg/100 mL of extract"]
]}

====

Assay: In vitro bioaccessibility after digestion of matrix-containing powder
Format: in vitro ADME
Conditions: single digestion, matrix-containing powder
Returns yes (1) if the recorded Bioaccessibility is greater than or equal to 30%, and no (0) otherwise.

{"columns": ["compound", "category"],
 "data": [
  ["OC[C@H]1O[C@@H](OC[C@H]2O[C@@H](Oc3cc4c(O)cc(O)cc4[o+]c3-c3ccc(O)c(O)c3)[C@H](O[C@@H]3OC[C@@H](O)[C@H](O)[C@H]3O)[C@@H](O)[C@H]2O)[C@H](O)[C@@H](O)[C@@H]1O [Cyanidin-3-xylosyl-glucosyl-galactoside]", "yes (1)"],
  ["OC[C@H]1O[C@@H](Oc2cc3c(O)cc(O)cc3[o+]c2-c2ccc(O)c(O)c2)[C@H](O[C@@H]2OC[C@@H](O)[C@H](O)[C@H]2O)[C@@H](O)[C@H]1O [Cyanidin-3-xylosyl-galactoside]", "yes (1)"],
  ["O=C(O)CC(=O)OC[C@H]1O[C@@H](Oc2cc3c(O)cc(O)cc3[o+]c2-c2ccc(O)cc2)[C@H](O)[C@@H](O)[C@@H]1O [Pelargonidin-3-malonyl-glucoside]", "yes (1)"],
  ["COc1cc(/C=C/C(=O)OC[C@H]2O[C@@H](OC[C@H]3O[C@@H](Oc4cc5c(O)cc(O)cc5[o+]c4-c4ccc(O)c(O)c4)[C@H](O[C@@H]4OC[C@@H](O)[C@H](O)[C@H]4O)[C@@H](O)[C@H]3O)[C@H](O)[C@@H](O)[C@@H]2O)ccc1O", "yes (1)"],
  ["O=C(/C=C/c1ccc(O)cc1)OC[C@H]1O[C@@H](OC[C@H]2O[C@@H](Oc3cc4c(O)cc(O)cc4[o+]c3-c3ccc(O)c(O)c3)[C@H](O[C@@H]3OC[C@@H](O)[C@H](O)[C@H]3O)[C@@H](O)[C@H]2O)[C@H](O)[C@@H](O)[C@@H]1O", "no (0)"],
  ["OC[C@H]1O[C@@H](Oc2cc3c(O)cc(O)cc3[o+]c2-c2ccc(O)cc2)[C@H](O)[C@@H](O)[C@@H]1O [Pelargonidin-3-glucoside]", "yes (1)"]
]}

====

Assay: Gastric stability of anthocyanins in extracts, standardized in vitro digestion (simulated gastric fluid, pepsin, pH 3.0)
Type: in vitro ADME
Conditions: single digestion, liquid extract, % of undigested

{"columns": ["compound", "units", "Gastric stability"],
 "data": [
  ["OC[C@H]1O[C@@H](Oc2cc3c(O)cc(O)cc3[o+]c2-c2ccc(O)c(O)c2)[C@H](O[C@@H]2OC[C@@H](O)[C@H](O)[C@H]2O)[C@@H](O)[C@H]1O [Cyanidin-3-xylosyl-galactoside]", "%", 81],
  ["OC[C@H]1O[C@@H](OC[C@H]2O[C@@H](Oc3cc4c(O)cc(O)cc4[o+]c3-c3ccc(O)c(O)c3)[C@H](O[C@@H]3OC[C@@H](O)[C@H](O)[C@H]3O)[C@@H](O)[C@H]2O)[C@H](O)[C@@H](O)[C@@H]1O [Cyanidin-3-xylosyl-glucosyl-galactoside]", "%", 59]
]}

====

Test: Intestinal stability of anthocyanins in extracts, standardized in vitro digestion (simulated intestinal fluid, pancreatin, bile, pH 7)
Format: in vitro ADME
Settings: single digestion, liquid extract, pH 7, 2 h 37 °C, mean ± SD n = 3
Protocol: A standardized in vitro digestion procedure was applied to each sample [20]. […] Aliquots from gastric and intestinal digests were sampled along black carrot and strawberry extracts digestion, stabilized by acidification with formic acid and stored at −20 °C until further analysis. Stability (%) was calculated as indicated by Equations (1) and (2). […]
# Lookup of reported Post-Intestinal concentration keyed by entry

{"columns": ["compound", "Post-Intestinal concentration"],
 "data": [
  ["OC[C@H]1O[C@@H](OC[C@H]2O[C@@H](Oc3cc4c(O)cc(O)cc4[o+]c3-c3ccc(O)c(O)c3)[C@H](O[C@@H]3OC[C@@H](O)[C@H](O)[C@H]3O)[C@@H](O)[C@H]2O)[C@H](O)[C@@H](O)[C@@H]1O [Cyanidin-3-xylosyl-glucosyl-galactoside]", "0.36 ± 0.00 mg/100 mL of extract"],
  ["O=C(/C=C/c1ccc(O)cc1)OC[C@H]1O[C@@H](OC[C@H]2O[C@@H](Oc3cc4c(O)cc(O)cc4[o+]c3-c3ccc(O)c(O)c3)[C@H](O[C@@H]3OC[C@@H](O)[C@H](O)[C@H]3O)[C@@H](O)[C@H]2O)[C@H](O)[C@@H](O)[C@@H]1O", "0.85 ± 0.07 mg/100 mL of extract"],
  ["COc1cc(/C=C/C(=O)OC[C@H]2O[C@@H](OC[C@H]3O[C@@H](Oc4cc5c(O)cc(O)cc5[o+]c4-c4ccc(O)c(O)c4)[C@H](O[C@@H]4OC[C@@H](O)[C@H](O)[C@H]4O)[C@@H](O)[C@H]3O)[C@H](O)[C@@H](O)[C@@H]2O)ccc1O", "5.54 ± 0.05 mg/100 mL of extract"],
  ["O=C(O)CC(=O)OC[C@H]1O[C@@H](Oc2cc3c(O)cc(O)cc3[o+]c2-c2ccc(O)cc2)[C@H](O)[C@@H](O)[C@@H]1O [Pelargonidin-3-malonyl-glucoside]", "1.77 ± 0.01 mg/100 mL of extract"],
  ["OC[C@H]1O[C@@H](Oc2cc3c(O)cc(O)cc3[o+]c2-c2ccc(O)cc2)[C@H](O)[C@@H](O)[C@@H]1O [Pelargonidin-3-glucoside]", "6.01 ± 0.02 mg/100 mL of extract"],
  ["OC[C@H]1O[C@@H](Oc2cc3c(O)cc(O)cc3[o+]c2-c2ccc(O)c(O)c2)[C@H](O[C@@H]2OC[C@@H](O)[C@H](O)[C@H]2O)[C@@H](O)[C@H]1O [Cyanidin-3-xylosyl-galactoside]", "0.94 ± 0.01 mg/100 mL of extract"]
]}

====

Assay: Intestinal stability of anthocyanins in extracts, standardized in vitro digestion (simulated intestinal fluid, pancreatin, bile, pH 7)
Assay type: in vitro ADME
Details: single digestion, liquid extract, % of undigested
# Lookup of reported Intestinal stability keyed by entry

{"columns": ["molecule", "units", "Intestinal stability"],
 "data": [
  ["O=C(O)CC(=O)OC[C@H]1O[C@@H](Oc2cc3c(O)cc(O)cc3[o+]c2-c2ccc(O)cc2)[C@H](O)[C@@H](O)[C@@H]1O [Pelargonidin-3-malonyl-glucoside]", "%", 46],
  ["OC[C@H]1O[C@@H](Oc2cc3c(O)cc(O)cc3[o+]c2-c2ccc(O)cc2)[C@H](O)[C@@H](O)[C@@H]1O [Pelargonidin-3-glucoside]", "%", 49],
  ["OC[C@H]1O[C@@H](OC[C@H]2O[C@@H](Oc3cc4c(O)cc(O)cc4[o+]c3-c3ccc(O)c(O)c3)[C@H](O[C@@H]3OC[C@@H](O)[C@H](O)[C@H]3O)[C@@H](O)[C@H]2O)[C@H](O)[C@@H](O)[C@@H]1O [Cyanidin-3-xylosyl-glucosyl-galactoside]", "%", 86],
  ["OC[C@H]1O[C@@H](Oc2cc3c(O)cc(O)cc3[o+]c2-c2ccc(O)c(O)c2)[C@H](O[C@@H]2OC[C@@H](O)[C@H](O)[C@H]2O)[C@@H](O)[C@H]1O [Cyanidin-3-xylosyl-galactoside]", "%", 79],
  ["O=C(/C=C/c1ccc(O)cc1)OC[C@H]1O[C@@H](OC[C@H]2O[C@@H](Oc3cc4c(O)cc(O)cc4[o+]c3-c3ccc(O)c(O)c3)[C@H](O[C@@H]3OC[C@@H](O)[C@H](O)[C@H]3O)[C@@H](O)[C@H]2O)[C@H](O)[C@@H](O)[C@@H]1O", "%", 48],
  ["COc1cc(/C=C/C(=O)OC[C@H]2O[C@@H](OC[C@H]3O[C@@H](Oc4cc5c(O)cc(O)cc5[o+]c4-c4ccc(O)c(O)c4)[C@H](O[C@@H]4OC[C@@H](O)[C@H](O)[C@H]4O)[C@@H](O)[C@H]3O)[C@H](O)[C@@H](O)[C@@H]2O)ccc1O", "%", 58]
]}
